# TEST SYSTEM: APOL1 (Homo sapiens, UniProt O14791)
# Sequence (O14791 whole entry S342G/I384M, form open): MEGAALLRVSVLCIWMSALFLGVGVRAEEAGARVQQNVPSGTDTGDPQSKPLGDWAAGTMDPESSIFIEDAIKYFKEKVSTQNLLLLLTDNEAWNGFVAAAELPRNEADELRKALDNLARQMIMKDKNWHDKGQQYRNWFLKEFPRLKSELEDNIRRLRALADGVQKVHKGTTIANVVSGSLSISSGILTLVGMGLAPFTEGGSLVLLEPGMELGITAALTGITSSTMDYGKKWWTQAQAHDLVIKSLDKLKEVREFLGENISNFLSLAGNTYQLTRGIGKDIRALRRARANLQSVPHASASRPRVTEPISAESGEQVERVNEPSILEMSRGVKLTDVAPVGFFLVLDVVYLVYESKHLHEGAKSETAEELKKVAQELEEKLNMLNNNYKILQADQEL
# METHOD SUMMARY: MultiTox-Fluor Multiplex Cytotoxicity Assay in tet-inducible APOL1 T-REx-HEK293 cells (cell rescue, ratio of dead to live cells)
# EXPERIMENTAL CONTEXT: tet-inducible transgenic APOL1 T-REx-HEK293 cell lines, 50 ng/mL tet, 24 hours; read-out: IP50 (i.e., IC50 for cell proliferation)
pIC50: −log10 of the molar value.
MEASURED ENDPOINT: pIC50

Given the compound `CCc1cc2c(s1)CCO[C@@]21CCN(Cc2ncco2)[C@@H](C)C1` , what is its reported pIC50? 6.00 to 6.30

Repeat with `C[C@H]1C[C@@]2(CCN1Cc1ccc(F)cn1)OCCc1cc(Cl)sc12` 6.30 to 7.00

Repeat with `CCc1cc2c(s1)CCO[C@@]21CCN(C[C@H]2C[C@@H](NC(=O)c3ccnc(C)n3)C2)[C@@H](C)C1` > 7.00

Repeat with `CC(=O)n1cc(CN2CCC3(CC2)OCCc2sc(Cl)cc23)cn1` 6.30 to 7.00

Repeat with CCc1cc2c(s1)CCOC21CCN(Cc2cn(CC(O)C(C)(C)O)nn2)C(C)C1 (centres unmarked) [Compound 125] > 7.00

Repeat with `CCc1cc2c(s1)CCOC21CCN(Cc2ccc(C(=O)N[C@H]3CC[C@H](O)CC3)nc2)CC1` > 7.00

Repeat with `C[C@H]1C[C@@]2(CCN1Cc1cccc(OCC(N)=O)c1)OCCc1cc(Cl)sc12` 6.30 to 7.00

Repeat with CCc1cc2c(s1)CCO[C@@]21CCN(CC(O)CO)[C@@H](C)C1 (some centres unmarked) [Compound 281] 6.30 to 7.00
